- Target: Alpha-2A adrenergic receptor (Homo sapiens, UniProt P08913); also: assay procedure not described here
- Sequence (P08913 whole entry): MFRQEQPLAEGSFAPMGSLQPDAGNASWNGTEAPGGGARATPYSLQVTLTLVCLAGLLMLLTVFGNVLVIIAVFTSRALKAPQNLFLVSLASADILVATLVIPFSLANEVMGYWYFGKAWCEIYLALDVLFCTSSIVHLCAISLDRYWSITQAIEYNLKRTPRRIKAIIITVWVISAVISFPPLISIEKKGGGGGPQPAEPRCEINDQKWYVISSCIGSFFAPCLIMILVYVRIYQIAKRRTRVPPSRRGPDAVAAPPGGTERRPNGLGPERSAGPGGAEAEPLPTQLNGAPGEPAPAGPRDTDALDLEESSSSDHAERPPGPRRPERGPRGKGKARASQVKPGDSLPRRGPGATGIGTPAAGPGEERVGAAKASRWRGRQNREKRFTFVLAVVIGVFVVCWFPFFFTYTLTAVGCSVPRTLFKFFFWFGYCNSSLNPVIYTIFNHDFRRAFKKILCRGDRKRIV
- Assay type: functional, cell-based
Test Readout: AC50

// solved cases for AC50 follow
COc1cc(C(=O)NC2CCCNC2)cc(OC)c1OC (centres undefined) [TROXIPIDE] | > 30 µM
C[C@@H]1C[C@H]2[C@@H]3CCC4=CC(=O)C=C[C@]4(C)[C@@]3(F)[C@@H](O)C[C@]2(C)[C@@]1(O)C(=O)CO | > 10 µM
CCC(=O)O[C@](Cc1ccccc1)(c1ccccc1)[C@H](C)CN(C)C | > 10 µM

Query block: Can you look up the measured AC50 of `C[C@]12C=CC(=O)C=C1CC[C@@H]1[C@@H]2CC[C@]2(C)OC(=O)CC[C@@H]12` for me?
Result block: > 30 µM
